- Experimental protocol: Selectivity index, ratio of IC50 for cytotoxicity against mouse J774.A1 cells to MIC90 for anti-tubercular activity against Mycobacterium tuberculosis H37Rv
- Format: toxicity, cell-based
- Cond: read-out: Selectivity Index
Threshold-based label: selectivity ratio under 7 gives class 1, selectivity ratio not under 7 gives class 0.

- Compound: "Cc1cc(CNCc2ccccc2)c(C)n1CC1CCCCC1"
  Label: "class 1"
- Compound: "Cc1cc(CNCC2CCCCC2)c(C)n1-c1nc2ccccc2s1"
  Label: "class 0"
- Compound: "Cc1cc(CNCC2CCCCC2)c(C)n1C(C)c1ccccc1 (stereo not given)"
  Label: "class 0"
- Compound: "Cc1cc(CNCCCCCCCCNC(=N)N)c(C)n1-c1ccc(OCC(=O)N(C)C)cc1.Cl.Cl"
  Label: "class 1"
